system: 323965-272-R-J2-PDC complex spheroid growth, % test/control; assay: Anticancer human tumor 323965-272-R-J2-PDC patient-derived pancreatic carcinoma cell line growth inhibition [Asc]; conditions: second compound 0.0949 µM; first compound 1 µM; active compounds read low;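 further: compound exposure lasted 7 days starting three days after spheroid seeding; 100% = DMSO vehicle control wells with viability set relative to vehicle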
In this section, each of the molecules is paired with its reported viability, T/C.

molecule	viability, T/C (%)
O=C(c1ccc(F)c(F)c1Nc1ccc(I)cc1F)N1CC(O)([C@@H]2CCCCN2)C1 + CCN1C(C(=O)NC23CCC(C(=O)O)(CC2)CC3)C(c2cccc(Cl)c2F)C2(C(=O)Nc3cc(Cl)ccc32)C12CCCCC2	19.1
O=C(c1cc(Cc2n[nH]c(=O)c3ccccc23)ccc1F)N1CCN(C(=O)C2CC2)CC1 + CCN1C(C(=O)NC23CCC(C(=O)O)(CC2)CC3)C(c2cccc(Cl)c2F)C2(C(=O)Nc3cc(Cl)ccc32)C12CCCCC2	108
COc1c(OCCCN2CCOCC2)ccc2c3n(c(=NC(=O)c4cnc(N)nc4)nc12)CCN3 + CCN1C(C(=O)NC23CCC(C(=O)O)(CC2)CC3)C(c2cccc(Cl)c2F)C2(C(=O)Nc3cc(Cl)ccc32)C12CCCCC2	25.5
CNC(C)C(=O)NC1CN(S(=O)(=O)c2cccc(S(=O)(=O)N3CCC4CCC(C(=O)NC(c5ccccc5)c5ccccc5)N4C(=O)C(NC(=O)C(C)NC)C3)c2)CCC2CCC(C(=O)NC(c3ccccc3)c3ccccc3)N2C1=O (stereo not given) + CCN1C(C(=O)NC23CCC(C(=O)O)(CC2)CC3)C(c2cccc(Cl)c2F)C2(C(=O)Nc3cc(Cl)ccc32)C12CCCCC2	99.5
C=CC(=O)N1CCN(c2nc(=O)n(-c3c(C)ccnc3C(C)C)c3nc(-c4c(O)cccc4F)c(F)cc23)C(C)C1 (stereo not given) + CCN1C(C(=O)NC23CCC(C(=O)O)(CC2)CC3)C(c2cccc(Cl)c2F)C2(C(=O)Nc3cc(Cl)ccc32)C12CCCCC2	73
